system: MCF7; assay: NCI tumour cell line growth inhibition, 48 h
Activity calls are given as the source filed them. No stated cut-off is given here; in the data, active = GI50 up to about 1.1 µM and inactive = higher.
Reported GI50 values for the following molecules.
measuredAttribute: GI50

molecule="CCOC(=O)Cc1nc2c(O)ncnc2n1C1OC(COC(C)=O)C(OC(C)=O)C1OC(C)=O (stereo not given)" valuereported="> 100 µM (inactive)"
molecule="CC1(c2cccc(C3CCC4(C=CC3=O)OCCO4)c2)OCCO1 (stereo not given)" valuereported="11 µM (inactive)"
molecule="CC(C)=CCC[C@]1(C)CC[C@]2(C)C3CCC(=C(C)C)[C@@H](CCCO)[C@]3(C)CC[C@@]2(C)C1 (stereo not given in full)" valuereported="24 µM (inactive)"
molecule=Nc1ccc(S(=O)(=O)Nc2nc3ccccc3nc2N2CCCCC2)cc1 valuereported="84.3 µM (inactive)"
molecule=Cc1ccsc1/C=N/Nc1cnccn1 valuereported="3.53 µM (inactive)"
